# System: HCI03 (cells of an ER-positive luminal breast cancer xenograft);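 note: PDX cells carrying CMV promoter-driven luciferase, viability read as total photon flux per second by IVIS imaging following D-luciferin, vehicle control 0.1% DMSO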
# assayProcedure: cell viability (% of vehicle); higher = less cytotoxic
# conditionDescription: 10 µM; 72 h
Would you kindly list cell viability for each of these compounds?
Please reply with the number alone, leaving off any unit.

Q: Give its cell viability value. Item: C=C1CC2C(CCC3(C)C(=O)CCC23)C2(C)C=CC(=O)C=C12 (stereo not drawn)
Result: 103

Q: Give its cell viability value. Item: Cc1cccc(C(C)c2cnc[nH]2)c1C.Cl (stereo not drawn) [Medetomidine HCl]
Result: 102

Q: Give its cell viability value. Item: CC12CC(=CO)C(=O)CC1CCC1C2CCC2(C)C1CCC2(C)O (stereo not drawn)
Result: 97.8
